This section presents binders with their documented R0 (binding) values.
Biological target: T1, cynomolgus recombinant IL-4Rα (cynomolgus (table head: cyno/rhesus), UniProt A0A2K5V556 26-232)
T1 construct: Bought reagent; also called cyno/rhesus IL-4Rα; cyno IL-4Rα
T1 sequence: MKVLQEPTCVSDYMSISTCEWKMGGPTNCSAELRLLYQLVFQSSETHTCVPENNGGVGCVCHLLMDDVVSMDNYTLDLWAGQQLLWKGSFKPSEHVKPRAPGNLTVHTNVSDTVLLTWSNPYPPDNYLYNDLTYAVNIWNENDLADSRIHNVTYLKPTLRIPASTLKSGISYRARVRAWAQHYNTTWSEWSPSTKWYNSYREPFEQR
Assay: SPR (Biacore 3000), periplasmic Fab over CM5 chip coated with cyno IL-4Rα
Answer field: number only, no words.

Some entries whose results are on file:
{"columns": ["binder", "R0 (binding)"],
 "data": [
  ["152A07 Fab (variant of 4RMP3D6) (Fab, V domains shown, also called VH152A07) VH: QVQLQESGGGLVQPGGSLRLSCAASGFTFSSYSLTWVRQAPGKGLEWVSTIKARGGTTLYADSVKDRFTISRDNAKNTLYLLMNSLKPEDTAVYYCAKPLYSNLAGDLGSWGQGTTVTVSS VL: DIQMTQSPSSLSASLGDRVTITCQASQSISSYLAWYQQKPGQAPKLLIYGGSRLQTGVPSRFSGSGSGTSFTLTISGLETEDLATYYCLQDYSWPLTFGQGTKLEIK", 94],
  ["150A09 Fab (variant of 4RMP3D6) (Fab, V domains shown, Fab from periplasmic extract, with CH1 and CK constant domains; also called VH150A09) VH: QVQLQESGGGLVQPGGSLRLSCAASGFTFSSYSLTWVRQAPGKGLEWVSTIKARGGTTLYADSVKDRFTISRDNAKNTLYLLMNSLKPEDTAVYYCVKPLYSNFAGDFGSWGQGTTVTVSS VL: DIQMTQSPSSLSASLGDRVTITCQASQSISSYLAWYQQKPGQAPRLLIYGGSRLQTGVPSRFSGSGSGTSFTLTISGLETEDLATYYCQQDYSWPLTFGQGTKLEIK", 80]
]}

In the following, a different binder is considered.
Any idea what R0 (binding) was measured for 152B10 Fab (variant of 4RMP3D6) (Fab, V domains shown, Fab from periplasmic extract, with CH1 and CK constant domains; also called VH152B10) VH: QVQLQESGGGLVQPGGSLRLSCAASGFTFSSYSLTWVRQAPGKGLEWVSTIKARGGTTLYADSVKDRFTISRDNAKNTLYLLVNSLKPEDTAVYYCAKPLYNNLAGDFGSWGQGTTVTVSS VL: DIQMTQSPSSLSASLGDRVTITCQASQSISSYLAWYQQKPGQAPKLLIYGGSRLQAGVPSRFSGSGSGTSFTLTIGGLETEDLATYYCQQDYSWPLTFGQGTKLEIK ? 170
